target: SARS-CoV-2 Spike protein (SARS-CoV-2 Wuhan-Hu-1, UniProt P0DTC2 14-1273); assay: cell-based or functional assay
PARAMETER MEASURED: neutralization IC50 (µg/mL)
Number only, in µg/mL; omit the unit.

Worked examples, 3 binders total:
{"BINDER": "S2D32 (antibody, V domains shown) VH: EVQLVESGGGLVQPGRSLRLSCTSSGFTFGDYPMSWFRQAPGKGLEWVGFIRSKAYGGTTQYAASVKGRFTISRDDSKNIAYLQMNSLKTEDTAVYYCTREMWDCSGGRCYSPFFDYWGQGTLVTVSS VL: EIVMTQSPATLSVSPGERATLSCRASQTVSSNLAWYQQKPGQAPRLLIYGASTRATGIPARFSGSGSGTEFTLTISSLQSEDFAVYYCQQYNNWRTFGQGTKLEIK", "neutralization IC50 [µg/mL]": 0.036}
{"BINDER": "S2D8 (antibody, V domains shown) VH: EVQLLESGGGLVQPGGSLRLSCAASGFTFTTYAMSWVRQAPGKGLEWVSGISGSGGNTYHADSVKGRFTISRDNSKSTLYLQMNSLRAEDTAVYYCAKDLWFREILHGMDVWGEGTTVTVSS VL: QSALTQPASVSGSPGQSITISCTGTSSDIGGYNYVSWYQHHPGKAPKIMIYEVTNRPSGVSNRFSGSKSGNTASLTISGLQAEDEADYYCSSYTSSNTYVFGTGTKVTVL", "neutralization IC50 [µg/mL]": 0.03}
{"BINDER": "S2D22 (antibody, V domains shown) VH: EVHLVESGGGLVQPGGSLKLSCAASGFTFSGSAMHWVRQASGKGLEWVGRIRTKANTYATAYAASVKGRFTISRDDSKNTAYLQMNSLKTEDTAVYYCTRPAPYDFLSDYYTGEQLDYWGQGTLVTVSS VL: QSVLTQPPSVSGAPGQRVTISCTGSSSNIGAGYDVHWYQQLPGAAPKLLIYGNSNRPSGVPDRFSGSKSGTSASLAITGLQAEDEADYYCQSYDSSLSGPEVFGTGTKVTVL", "neutralization IC50 [µg/mL]": 0.865}

Now take the following binder into account.
GET /values?readout=neutralization IC50&item= S2D25 (antibody, V domains shown) VH: EVQLVESGGGLVQPGGSLRLSCAASGFPFNIYAMSWVRQAPGKGLEWVSGISGSGGSTYYADSVRGRFAISRDNSKNTLYLQMNSLRAEDTAEYYCAKDLWFREILHGMDVWGKGTTVTVSS VL: QSALTQPASVSGSPGQSITISCTGTSSDVGGYNYVSWYQHHPGRAPKLMIYEVSNRPSGVSNRFSGSKSGNTASLSISGLQAEDEADYYCSSYTSSSTYVFGAGTKVTVL
0.04
